test: Binding affinity to Methicillin-resistant Staphylococcus aureus COL TarG assessed as suppression of targocil-mediated bacterial growth inhibition after 20 hrs in presence of L-638; set-up: species or system Staphylococcus aureus subsp. aureus COL
pEC50: −log10 of the molar value.
Class Y: pEC50 at least 5. Class N: pEC50 below 5.

{"Molecule": "CCN(C(=O)CCn1c2ccc(Br)cc2nc1[C@H]1CC[C@H](CC)CC1)C1CCCCC1", "Assigned Class": "Y"}
{"Molecule": "CC1(C)[C@@H]2CC[C@@]1(C)[C@H](NC(=O)CCn1c(C3CCCCC3)nc3ccccc31)C2", "Assigned Class": "Y"}
{"Molecule": "CC1(C)[C@@H]2CC[C@@]1(C)[C@@H](NC(=O)CCn1c(C3CCCCC3)nc3ccccc31)C2", "Assigned Class": "N"}
{"Molecule": "CC1(C)C2CC[C@]1(C)[C@@H](NC(=O)CCn1c(C3CCNCC3)nc3ccccc31)C2", "Assigned Class": "N"}
{"Molecule": "CCN(C(=O)CCn1c(C2CCCCC2)nc2ccccc21)c1ccccc1", "Assigned Class": "N"}

Does the molecule CCC1CCC(c2nc3ccccc3n2CCC(=O)N(CC)C2CCCCC2)CC1 (stereo not given) have recorded pEC50 that is 5 or more? Y

Does the molecule `CCN(C(=O)CCn1c(N2CCCCC2)nc2ccccc21)C1CCCCC1` have recorded pEC50 that is 5 or more? Y

Does the molecule `CCN(C(=O)CCn1c(N2CCC(C)CC2)nc2ccccc21)C1CCCCC1` have recorded pEC50 that is 5 or more? Y

Does the molecule `O=C(CCn1c(C2CCCCC2)nc2ccccc21)NC1CCCCC1` have recorded pEC50 that is 5 or more? N

* * *

system: Staphylococcus aureus subsp. aureus COL; assay: Inhibition of Staphylococcus aureus COL TarO assessed as concentration of compound for potentiation of action of imipenem-mediated bacterial growth inhibition
Listing of entries alongside the reported MITC95.
Numbers only; they are read as µM.

Some solved cases for reference:
{"Compound": "CCC1CCC(c2nc3ccccc3n2CCC(=O)N(CC)C2CCCCC2)CC1 (stereo not given)", "Target System": "Staphylococcus aureus subsp. aureus COL", "MITC95, µM": 0.03}
{"Compound": "CN(C(=O)CCn1c(C2CCCCC2)nc2ccccc21)C1CCCCC1", "Target System": "Staphylococcus aureus subsp. aureus COL", "MITC95, µM": 4.7}
{"Compound": "CC(C)(C)OC(=O)N1CCC(c2nc3ccccc3n2CCC(=O)N[C@H]2CC3CC[C@@]2(C)C3(C)C)CC1", "Target System": "Staphylococcus aureus subsp. aureus COL", "MITC95, µM": 9.4}

Then this compound:
Hello, please tell me recorded MITC95 for this one: `CCN(C(=O)CCn1c(C2CCCCC2)nc2ccccc21)c1ccccc1` 50

* * *

experiment: Binding affinity to Methicillin-resistant Staphylococcus aureus COL TarG assessed as suppression of targocil-mediated bacterial growth inhibition after 20 hrs in presence of L-638; parameters: species or system Staphylococcus aureus subsp. aureus COL
pEC50: −log10 of the molar value.
Class class 1: pEC50 at least 5. Class class 0: pEC50 below 5.

Solved cases below.
{"Smiles Notation": "CCN(C(=O)CCn1c(C2CCCCC2)nc2ccccc21)C1CCCCCC1", "Assigned Class": "class 0"}
{"Smiles Notation": "CCN(C(=O)CCn1c(C2CCCCC2)nc2ccccc21)C1CCCC1", "Assigned Class": "class 0"}
{"Smiles Notation": "CCN(C(=O)CCn1c(C2CCCCC2)nc2ccccc21)C1CCCCC1", "Assigned Class": "class 1"}
{"Smiles Notation": "CCN(C(=O)CCn1c2cccc(Br)c2nc1[C@H]1CC[C@H](CC)CC1)C1CCCCC1", "Assigned Class": "class 1"}

Continue with the next compound.
Does the compound `CCN(C(=O)CCn1c2cccc(C)c2nc1[C@H]1CC[C@H](CC)CC1)C1CCCCC1` have recorded pEC50 that is 5 or more? class 1

* * *

tested on: Staphylococcus aureus; assay: Inhibition of Methicillin-resistant Staphylococcus aureus TarO assessed as percentage of MRSA MITC<=25 uM for 25 isolates; parameters: scale not given: the % may be the effect or the level left
Listing of entries alongside the reported Activity.
Numbers only; they are read as %.

Some solved cases for reference:
{"Smiles Notation": "CCN(C(=O)CCn1c2cc(Br)ccc2nc1[C@H]1CC[C@H](CC)CC1)C1CCCCC1", "Activity (%)": 68}
{"Smiles Notation": "CCN(C(=O)CCn1c2ccc(Br)cc2nc1[C@H]1CC[C@H](CC)CC1)C1CCCCC1", "Activity (%)": 80}
{"Smiles Notation": "CCN(C(=O)CCn1c2cccc(C)c2nc1[C@H]1CC[C@H](CC)CC1)C1CCCCC1", "Activity (%)": 68}
{"Smiles Notation": "CCN(C(=O)CCn1c(N2CCC(C(C)(C)C)CC2)nc2ccccc21)C1CCCCC1", "Activity (%)": 76}

Then this compound:
Hello, please tell me recorded Activity for this one: `CCN(C(=O)CCn1c2cccc(Br)c2nc1[C@H]1CC[C@H](CC)CC1)C1CCCCC1` 68

* * *

test system: Staphylococcus aureus subsp. aureus COL; experiment: Inhibition of Staphylococcus aureus COL TarO assessed as concentration of compound for potentiation of action of imipenem-mediated bacterial growth inhibition
Reported Metric: MITC95 (µM)
Numbers only; they are read as µM.

Some solved cases for reference:
{"Compound": "CCN(C(=O)CCn1c2ccc(Br)cc2nc1[C@H]1CC[C@H](CC)CC1)C1CCCCC1", "Reported": 0.004}
{"Compound": "CCN(C(=O)CCn1c(N2CCC(C(C)(C)C)CC2)nc2ccccc21)C1CCCCC1", "Reported": 0.016}
{"Compound": "CCN(C(=O)CCn1c(C2CCCCC2)nc2ccccc21)C1CCCCC1", "Reported": 1.9}
{"Compound": "CCCN(C(=O)CCn1c(C2CCCCC2)nc2ccccc21)C1CCCCC1", "Reported": 6.2}
{"Compound": "CCN(C(=O)CCn1c(C2CCCCC2)nc2ccccc21)C1CCCC1", "Reported": 12.5}

Hello, please tell me recorded MITC95 for this one: `O=C(CCn1c(C2CCCCC2)nc2ccccc21)NC1CCCCC1` 25

Hello, please tell me recorded MITC95 for this one: `CC1(C)[C@@H]2CC[C@@]1(C)[C@@H](NC(=O)CCn1c(C3CCCCC3)nc3ccccc31)C2` 16.7

Hello, please tell me recorded MITC95 for this one: `CCN(C(=O)CCn1c(N2CCCCC2)nc2ccccc21)C1CCCCC1` 4.7

Hello, please tell me recorded MITC95 for this one: `CCN(C(=O)CCn1c(C2CCCCC2)nc2ccccc21)C1CCCCCC1` 4.7

* * *

assay: Inhibition of Staphylococcus aureus TarO; set-up: species or system Staphylococcus aureus subsp. aureus COL
Reported Metric: IC50 (nM)
Numbers only; they are read as nM.

Hello, please tell me recorded IC50 for this one: `CC1(C)[C@@H]2CC[C@@]1(C)[C@H](NC(=O)CCn1c(C3CCCCC3)nc3ccccc31)C2` 400

* * *

tested on: Staphylococcus epidermidis; assay: Inhibition of Methicillin-resistant Staphylococcus epidermidis TarO assessed as percentage of MRSE MITC<=25 uM for 25 isolates; set-up: scale not given: the % may be the effect or the level left
Class YES: Activity at least 50%. Class NO: Activity below 50%.

Solved cases below.
{"Smiles Notation": "CCN(C(=O)CCn1c2cccc(Br)c2nc1[C@H]1CC[C@H](CC)CC1)C1CCCCC1", "Target System": "Staphylococcus epidermidis", "Assigned Class": "YES"}
{"Smiles Notation": "CCN(C(=O)CCn1c2cccc(C)c2nc1[C@H]1CC[C@H](CC)CC1)C1CCCCC1", "Target System": "Staphylococcus epidermidis", "Assigned Class": "YES"}
{"Smiles Notation": "CCN(C(=O)CCn1c2cc(Br)ccc2nc1[C@H]1CC[C@H](CC)CC1)C1CCCCC1", "Target System": "Staphylococcus epidermidis", "Assigned Class": "NO"}
{"Smiles Notation": "CCN(C(=O)CCn1c(N2CCC(C(C)(C)C)CC2)nc2ccccc21)C1CCCCC1", "Target System": "Staphylococcus epidermidis", "Assigned Class": "NO"}

Continue with the next compound.
Does the compound `CCN(C(=O)CCn1c2ccc(Br)cc2nc1[C@H]1CC[C@H](CC)CC1)C1CCCCC1` have recorded Activity that is 50% or more? NO

* * *

experiment: Binding affinity to Methicillin-resistant Staphylococcus aureus COL TarG assessed as suppression of targocil-mediated bacterial growth inhibition after 20 hrs in presence of L-638; design: species or system Staphylococcus aureus subsp. aureus COL
Reported Metric: pEC50
Here pEC50 is given on a logarithmic scale as minus log10 of the concentration in mol/L.

Some solved cases for reference:
{"Compound": "CN(C(=O)CCn1c(C2CCCCC2)nc2ccccc21)C1CCCCC1", "Reported Metric": "pEC50", "Reported": 4.94}
{"Compound": "CC(C)(C)OC(=O)N1CCC(c2nc3ccccc3n2CCC(=O)N[C@H]2CC3CC[C@@]2(C)C3(C)C)CC1", "Reported Metric": "pEC50", "Reported": 4.23}

Then this compound:
Hello, please tell me recorded pEC50 for this one: `CCC1CCN(c2nc3ccccc3n2CCC(=O)N(CC)C2CCCCC2)CC1` 6.66
